# experimental system: mP2Y14R (Mus musculus, UniProt Q9ESG6)
# Sequence (Q9ESG6 whole entry): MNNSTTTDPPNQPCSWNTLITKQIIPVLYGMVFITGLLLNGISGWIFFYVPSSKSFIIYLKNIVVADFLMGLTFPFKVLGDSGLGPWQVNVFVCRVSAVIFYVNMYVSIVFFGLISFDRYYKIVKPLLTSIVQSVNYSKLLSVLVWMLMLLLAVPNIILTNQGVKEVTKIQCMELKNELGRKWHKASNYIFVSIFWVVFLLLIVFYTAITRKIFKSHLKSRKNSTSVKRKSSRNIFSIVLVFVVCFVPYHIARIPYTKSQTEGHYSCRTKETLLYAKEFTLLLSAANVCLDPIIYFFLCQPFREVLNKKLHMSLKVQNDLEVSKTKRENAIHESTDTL
# conditions used: read-out: Mouse P2Y14R binding affinity (IC50); mP2Y14R in HEK293 cells, tracer 20
measurement kind: IC50

# annotated cases, reported IC50 shown
>>> measured("C#CCCCCN1CCC(c2ccc(-c3cc(C(=O)O)cc4cc(-c5ccc(C(F)(F)F)cc5)ccc34)cc2)CC1")
"130 nM"
>>> measured("O=C(O)c1cc(-c2ccc(C3CCNCC3)cc2)cc(-c2cn(-c3ccc(C(F)(F)F)cc3)nn2)c1")
"246 nM"
>>> measured("O=C(O)c1cc(O)c2ccc(-c3ccc(C(F)(F)F)cc3)cc2c1")
"1600 nM"
>>> measured("NCCCNC(=O)c1ccc(-c2cc(C(=O)O)cc(-n3cc(-c4ccc(C(F)(F)F)cc4)nn3)c2)s1")
"384 nM"

Request the reported IC50 associated with CCC(=O)N1CCC(c2ccc(-c3cc(C(=O)O)cc4cc(-c5ccc(C(F)(F)F)cc5)ccc34)cc2)CC1
38 nM

====

# experimental system: TSPO (Rattus norvegicus, UniProt P16257)
# Sequence (P16257 whole entry): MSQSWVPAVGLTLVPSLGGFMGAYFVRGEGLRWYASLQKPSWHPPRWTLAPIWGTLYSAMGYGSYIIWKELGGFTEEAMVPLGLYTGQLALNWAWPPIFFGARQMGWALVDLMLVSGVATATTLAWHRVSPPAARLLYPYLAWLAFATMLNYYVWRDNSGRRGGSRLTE
measurement kind: pKi
Numbers only, as −log10 of the molar value.

Request the reported pKi associated with CC(=O)N1CCC(c2ccc(-c3cc(C(=O)O)cc4cc(-c5ccc(C(F)(F)F)cc5)ccc34)cc2)CC1
6.29

====

# Test system: CCI-induced mechano-allodynia
# assay info: Chronic constriction injury (CCI) of the sciatic nerve, mechano-allodynia by von Frey filaments
# Type: in vivo, mouse
# conditions used: 10 μmol/kg, i.p., day 7 post-CCI, n = 3
Everything with Effect at 0.5 h (% ± SD), percent inhibition of mechano-allodynia lower than 50% is No; everything else, including exactly 50%, is Yes.

Here are 6 compounds together with their reported answers.
>>> group("NCCCNC(=O)c1ccc(-c2cc(C(=O)O)cc(-n3cc(-c4ccc(C(F)(F)F)cc4)nn3)c2)s1 [Compound 8]")
"Yes"
>>> group("CCC(=O)N1CCC(c2ccc(-c3cc(C(=O)O)cc4cc(-c5ccc(C(F)(F)F)cc5)ccc34)cc2)CC1 [Compound 5]")
"No"
>>> group("O=C(O)c1cc(-c2ccc(C3CCNCC3)cc2)c2ccc(-c3ccc(C(F)(F)F)cc3)cc2c1 [Compound 1]")
"Yes"
>>> group("O=C(O)c1cc(O)c2ccc(-c3ccc(C(F)(F)F)cc3)cc2c1 [Compound 2]")
"No"
>>> group("C#CCCCCN1CCC(c2ccc(-c3cc(C(=O)O)cc4cc(-c5ccc(C(F)(F)F)cc5)ccc34)cc2)CC1 [Compound 3]")
"Yes"
>>> group("O=C(O)c1cc(-c2ccc(C3CCNCC3)cc2)cc(-c2cn(-c3ccc(C(F)(F)F)cc3)nn2)c1 [Compound 7]")
"Yes"

Next, consider the following compound.
Can O=C(O)c1cc(-c2ccc(C3CCNCC3)cc2)cc(-n2cc(-c3ccc(C(F)(F)F)cc3)nn2)c1 [Compound 6] be said to have Effect at 0.5 h (% ± SD), percent inhibition of mechano-allodynia at or above 50%?
Yes

====

# experimental system: DOR (Homo sapiens, UniProt P41143)
# Sequence (P41143 whole entry): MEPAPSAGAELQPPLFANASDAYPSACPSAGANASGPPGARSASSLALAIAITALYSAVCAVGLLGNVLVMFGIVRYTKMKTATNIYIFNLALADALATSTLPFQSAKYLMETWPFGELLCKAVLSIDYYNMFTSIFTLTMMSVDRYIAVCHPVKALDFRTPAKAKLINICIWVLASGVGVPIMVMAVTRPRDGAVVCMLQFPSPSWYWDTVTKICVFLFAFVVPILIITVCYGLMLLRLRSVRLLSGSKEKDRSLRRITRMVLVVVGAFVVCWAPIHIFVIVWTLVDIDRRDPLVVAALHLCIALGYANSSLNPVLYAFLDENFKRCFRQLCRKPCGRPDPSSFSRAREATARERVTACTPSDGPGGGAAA
measurement kind: Ki

Request the reported Ki associated with O=C(O)c1cc(-c2ccc(C3CCNCC3)cc2)cc(-c2cn(-c3ccc(C(F)(F)F)cc3)nn2)c1
3.79 µM

====

# experimental system: 5HT1E (Homo sapiens)
# Sequence (P28566 whole entry, species assumed): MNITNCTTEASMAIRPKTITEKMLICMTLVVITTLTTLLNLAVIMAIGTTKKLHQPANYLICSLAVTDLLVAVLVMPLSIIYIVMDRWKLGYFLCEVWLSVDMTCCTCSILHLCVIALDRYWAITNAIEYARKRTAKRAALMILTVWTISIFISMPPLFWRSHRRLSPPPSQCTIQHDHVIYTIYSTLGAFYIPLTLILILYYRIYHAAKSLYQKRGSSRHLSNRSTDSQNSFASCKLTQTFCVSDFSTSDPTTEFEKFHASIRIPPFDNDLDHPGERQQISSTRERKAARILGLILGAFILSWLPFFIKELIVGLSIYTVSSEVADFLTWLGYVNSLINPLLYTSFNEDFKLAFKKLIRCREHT
measurement kind: Ki (µM)
Give bare numbers, in µM.

Request the reported Ki associated with CC(=O)N1CCC(c2ccc(-c3cc(C(=O)O)cc4cc(-c5ccc(C(F)(F)F)cc5)ccc34)cc2)CC1 [Compound 4]
3.91

====

# experimental system: CB2 cannabinoid receptor (Homo sapiens, UniProt P34972)
# Sequence (P34972 whole entry): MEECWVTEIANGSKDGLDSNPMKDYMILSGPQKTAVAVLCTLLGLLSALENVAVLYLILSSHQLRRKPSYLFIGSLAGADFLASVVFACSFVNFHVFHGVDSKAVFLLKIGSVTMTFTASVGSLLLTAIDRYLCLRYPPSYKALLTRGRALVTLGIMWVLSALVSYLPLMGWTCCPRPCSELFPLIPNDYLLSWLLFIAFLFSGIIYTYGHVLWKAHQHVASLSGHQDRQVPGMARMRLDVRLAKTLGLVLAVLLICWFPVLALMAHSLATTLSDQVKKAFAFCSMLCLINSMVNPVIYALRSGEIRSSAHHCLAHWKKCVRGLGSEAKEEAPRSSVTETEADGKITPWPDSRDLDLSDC
# assay info: PRESTO-Tango agonist/antagonist assay
pIC50: −log10 of the molar value.
measurement kind: pIC50

Request the reported pIC50 associated with O=C(O)c1cc(-c2ccc(C3CCNCC3)cc2)c2ccc(-c3ccc(C(F)(F)F)cc3)cc2c1 [Compound 1]
< 4.30

====

# Test system: CCI-induced mechano-allodynia
# assay info: Chronic constriction injury (CCI) of the sciatic nerve, mechano-allodynia by von Frey filaments
# Format: in vivo, mouse
# conditions used: 10 μmol/kg, i.p., day 7 post-CCI, n = 3
Everything with Effect at 2 h (% ± SD), percent inhibition of mechano-allodynia lower than 70% is label 0; everything else, including exactly 70%, is label 1.

>>> group("O=C(O)c1cc(O)c2ccc(-c3ccc(C(F)(F)F)cc3)cc2c1 [Compound 2]")
"label 0"

Can O=C(O)c1cc(-c2ccc(C3CCNCC3)cc2)cc(-n2cc(-c3ccc(C(F)(F)F)cc3)nn2)c1 [Compound 6] be said to have Effect at 2 h (% ± SD), percent inhibition of mechano-allodynia at or above 70%?
label 0

Request: O=C(O)c1cc(-c2ccc(C3CCNCC3)cc2)c2ccc(-c3ccc(C(F)(F)F)cc3)cc2c1 [Compound 1]
label 1

Request: C#CCCCCN1CCC(c2ccc(-c3cc(C(=O)O)cc4cc(-c5ccc(C(F)(F)F)cc5)ccc34)cc2)CC1 [Compound 3]
label 0

Request: NCCCNC(=O)c1ccc(-c2cc(C(=O)O)cc(-n3cc(-c4ccc(C(F)(F)F)cc4)nn3)c2)s1 [Compound 8]
label 1

====

Target chain: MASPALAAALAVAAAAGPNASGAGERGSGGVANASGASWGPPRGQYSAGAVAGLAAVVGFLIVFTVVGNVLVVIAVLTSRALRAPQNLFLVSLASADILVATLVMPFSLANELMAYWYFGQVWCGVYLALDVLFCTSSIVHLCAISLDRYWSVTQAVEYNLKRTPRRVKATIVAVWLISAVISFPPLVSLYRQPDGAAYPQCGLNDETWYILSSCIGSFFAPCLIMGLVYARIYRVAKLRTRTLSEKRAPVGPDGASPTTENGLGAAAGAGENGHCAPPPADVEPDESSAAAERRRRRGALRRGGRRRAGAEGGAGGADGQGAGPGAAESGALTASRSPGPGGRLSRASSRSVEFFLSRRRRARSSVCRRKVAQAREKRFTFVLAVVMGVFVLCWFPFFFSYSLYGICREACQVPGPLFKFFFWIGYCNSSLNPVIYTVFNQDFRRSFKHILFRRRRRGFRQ
measurement kind: Ki (nM)
Answers are plain numbers, in nM.

Request the reported Ki associated with O=C(O)c1cc(-c2ccc(C3CCNCC3)cc2)cc(-c2cn(-c3ccc(C(F)(F)F)cc3)nn2)c1 [Compound 7]
2710
